Where these numbers come from: PubChem BioAssay (NCI)

Each item that follows carries a reported growth.
# Test system: SW-620 colon
# EXPERIMENTAL DETAILS: NCI-60 one-dose screen, 48 h (100 = growth as untreated, 0 = no growth, -100 = all killed)
# SETUP CONDITIONS: 10 µM
The panel holds about 83,000 compounds, 20% with a hit somewhere; the sample as a whole holds those more often.
Report only the number, with the unit % understood.

Example cases with answers are listed next.
COMPOUND	growth [%]
O=C(Nc1ccc(OCc2ccc(Cl)cc2)cc1)Nc1ccc(Cl)c(C(F)(F)F)c1	25.1
COc1cccc(O)c1/C=C1\SCc2cc3c(OC)cccc3[o+]c21	115
COc1ccc(Cc2nn(CC(=O)N/N=C/c3ccc([N+](=O)[O-])cc3)c(=O)c3c(C)noc23)cc1	60.9
COc1ccc(Cn2cc(C#N)c(N)c2C(C)=O)c(OC)c1	106
C#C[C@]1(O)CC[C@H]2[C@@H]3CC=C4c5sc(Nc6ccc(C(F)(F)F)cn6)nc5CC[C@]4(C)[C@H]3CC[C@@]21C	-32.8
Cc1ccc2sc3c(c2c1)Oc1nc[nH]c(=O)c1C3c1cccc(F)c1 (centres undefined)	102

Query for SW-620 colon: what growth does the record show for CCOC(=O)C1=C(N)N(c2ccc(C)cc2)C2=C(C(=O)CC(C)(C)C2)C1c1ccccc1Br (centres undefined) ?
46

// repeat for "Nc1nnc(-c2c[nH]c3ncc(Br)cc23)c(-c2c[nH]c3ccc(Br)cc23)n1" and report
20.2

Now try COc1cc(C2CC(c3ccc(Oc4ccc(Cl)cc4)cc3)=NN2c2nc(-c3ccc(Cl)cc3)c(C#N)c(N3CCOCC3)n2)cc(OC)c1OC (centres undefined) .
101
